Origin of measurements: patent US7511077B2

STUDY SYSTEM: human α1G T-type channels (Homo sapiens)
Construct: expressed in transfected cells; host or cells: HEK cell lines
MEASUREMENT DESCRIPTION: T-type calcium channel block, patch clamp in HEK cell lines
Assay type: cell-based
APPLIED CONDITIONS: −80 mV (inactivation protocol, voltage-dependent block); read-out: IC50 @ −80 mV
MEASUREMENT TYPE: IC50 (nM)
Please state the figure in nM; there is no need to write the unit.

// IC50 value for O=C(CCCCC(c1ccc(F)cc1)c1ccc(F)cc1)NCC#CCNC(=O)c1ccc(Cl)cc1 : 29

// IC50 value for O=C(CCCCC(c1ccc(F)cc1)c1ccc(F)cc1)NC/C=C\CNC(=O)c1cc(C(F)(F)F)cc(C(F)(F)F)c1 : 7

// IC50 value for O=C(CCCCC(c1ccc(F)cc1)c1ccc(F)cc1)NC/C=C/CNC(=O)c1ccc(F)cc1 : 43

// IC50 value for CC(C)c1ccc(C(=O)NC/C=C\CNC(=O)CCCCC(c2ccc(F)cc2)c2ccc(F)cc2)cc1 : 56

// IC50 value for COc1cc(C(=O)NC/C=C/CNC(=O)CCCCC(c2ccc(F)cc2)c2ccc(F)cc2)cc(OC)c1OC : 51

// IC50 value for O=C(CCCCC(c1ccc(F)cc1)c1ccc(F)cc1)NCCCCNC(=O)COc1ccc(Cl)cc1 : 29

// IC50 value for O=C(CCCCC(c1ccc(F)cc1)c1ccc(F)cc1)NC/C=C\CNC(=O)COc1ccc(Cl)cc1 : 67

// IC50 value for COc1cc(C(=O)NCC#CCNC(=O)CCCCC(c2ccc(F)cc2)c2ccc(F)cc2)cc(OC)c1OC : 78

// IC50 value for CC(C)(C)c1ccc(C(=O)NC/C=C\CNC(=O)CCCCC(c2ccc(F)cc2)c2ccc(F)cc2)cc1 : 12

// IC50 value for O=C(CC(c1ccccc1)c1ccccc1)NC/C=C/CN(Cc1ccncc1)Cc1ccncc1 : 163

// IC50 value for CC(C)c1ccc(C(=O)NC/C=C/CNC(=O)CCCCC(c2ccc(F)cc2)c2ccc(F)cc2)cc1 : 3

// IC50 value for O=C(CCCCC(c1ccc(F)cc1)c1ccc(F)cc1)NC/C=C/CNC(=O)COc1ccc(Cl)cc1 : 7

// IC50 value for Cc1ccc(C(=O)NC/C=C/CNC(=O)CCCCC(c2ccc(F)cc2)c2ccc(F)cc2)cc1 : 9

// IC50 value for CC(C)(C)c1ccc(C(=O)NCCCCNC(=O)CCCCC(c2ccc(F)cc2)c2ccc(F)cc2)cc1 : 141

// IC50 value for CC(C)c1ccc(C(=O)NCCCCNC(=O)CCCCC(c2ccc(F)cc2)c2ccc(F)cc2)cc1 : 8

* * *

STUDY SYSTEM: rat brain N-type calcium channel subunits (α1B+α2δ+β1b cDNA subunits) (Rattus norvegicus, UniProt Q02294)
Construct: expressed in transfected cells; host or cells: HEK 293
Sequence (Q02294 whole entry): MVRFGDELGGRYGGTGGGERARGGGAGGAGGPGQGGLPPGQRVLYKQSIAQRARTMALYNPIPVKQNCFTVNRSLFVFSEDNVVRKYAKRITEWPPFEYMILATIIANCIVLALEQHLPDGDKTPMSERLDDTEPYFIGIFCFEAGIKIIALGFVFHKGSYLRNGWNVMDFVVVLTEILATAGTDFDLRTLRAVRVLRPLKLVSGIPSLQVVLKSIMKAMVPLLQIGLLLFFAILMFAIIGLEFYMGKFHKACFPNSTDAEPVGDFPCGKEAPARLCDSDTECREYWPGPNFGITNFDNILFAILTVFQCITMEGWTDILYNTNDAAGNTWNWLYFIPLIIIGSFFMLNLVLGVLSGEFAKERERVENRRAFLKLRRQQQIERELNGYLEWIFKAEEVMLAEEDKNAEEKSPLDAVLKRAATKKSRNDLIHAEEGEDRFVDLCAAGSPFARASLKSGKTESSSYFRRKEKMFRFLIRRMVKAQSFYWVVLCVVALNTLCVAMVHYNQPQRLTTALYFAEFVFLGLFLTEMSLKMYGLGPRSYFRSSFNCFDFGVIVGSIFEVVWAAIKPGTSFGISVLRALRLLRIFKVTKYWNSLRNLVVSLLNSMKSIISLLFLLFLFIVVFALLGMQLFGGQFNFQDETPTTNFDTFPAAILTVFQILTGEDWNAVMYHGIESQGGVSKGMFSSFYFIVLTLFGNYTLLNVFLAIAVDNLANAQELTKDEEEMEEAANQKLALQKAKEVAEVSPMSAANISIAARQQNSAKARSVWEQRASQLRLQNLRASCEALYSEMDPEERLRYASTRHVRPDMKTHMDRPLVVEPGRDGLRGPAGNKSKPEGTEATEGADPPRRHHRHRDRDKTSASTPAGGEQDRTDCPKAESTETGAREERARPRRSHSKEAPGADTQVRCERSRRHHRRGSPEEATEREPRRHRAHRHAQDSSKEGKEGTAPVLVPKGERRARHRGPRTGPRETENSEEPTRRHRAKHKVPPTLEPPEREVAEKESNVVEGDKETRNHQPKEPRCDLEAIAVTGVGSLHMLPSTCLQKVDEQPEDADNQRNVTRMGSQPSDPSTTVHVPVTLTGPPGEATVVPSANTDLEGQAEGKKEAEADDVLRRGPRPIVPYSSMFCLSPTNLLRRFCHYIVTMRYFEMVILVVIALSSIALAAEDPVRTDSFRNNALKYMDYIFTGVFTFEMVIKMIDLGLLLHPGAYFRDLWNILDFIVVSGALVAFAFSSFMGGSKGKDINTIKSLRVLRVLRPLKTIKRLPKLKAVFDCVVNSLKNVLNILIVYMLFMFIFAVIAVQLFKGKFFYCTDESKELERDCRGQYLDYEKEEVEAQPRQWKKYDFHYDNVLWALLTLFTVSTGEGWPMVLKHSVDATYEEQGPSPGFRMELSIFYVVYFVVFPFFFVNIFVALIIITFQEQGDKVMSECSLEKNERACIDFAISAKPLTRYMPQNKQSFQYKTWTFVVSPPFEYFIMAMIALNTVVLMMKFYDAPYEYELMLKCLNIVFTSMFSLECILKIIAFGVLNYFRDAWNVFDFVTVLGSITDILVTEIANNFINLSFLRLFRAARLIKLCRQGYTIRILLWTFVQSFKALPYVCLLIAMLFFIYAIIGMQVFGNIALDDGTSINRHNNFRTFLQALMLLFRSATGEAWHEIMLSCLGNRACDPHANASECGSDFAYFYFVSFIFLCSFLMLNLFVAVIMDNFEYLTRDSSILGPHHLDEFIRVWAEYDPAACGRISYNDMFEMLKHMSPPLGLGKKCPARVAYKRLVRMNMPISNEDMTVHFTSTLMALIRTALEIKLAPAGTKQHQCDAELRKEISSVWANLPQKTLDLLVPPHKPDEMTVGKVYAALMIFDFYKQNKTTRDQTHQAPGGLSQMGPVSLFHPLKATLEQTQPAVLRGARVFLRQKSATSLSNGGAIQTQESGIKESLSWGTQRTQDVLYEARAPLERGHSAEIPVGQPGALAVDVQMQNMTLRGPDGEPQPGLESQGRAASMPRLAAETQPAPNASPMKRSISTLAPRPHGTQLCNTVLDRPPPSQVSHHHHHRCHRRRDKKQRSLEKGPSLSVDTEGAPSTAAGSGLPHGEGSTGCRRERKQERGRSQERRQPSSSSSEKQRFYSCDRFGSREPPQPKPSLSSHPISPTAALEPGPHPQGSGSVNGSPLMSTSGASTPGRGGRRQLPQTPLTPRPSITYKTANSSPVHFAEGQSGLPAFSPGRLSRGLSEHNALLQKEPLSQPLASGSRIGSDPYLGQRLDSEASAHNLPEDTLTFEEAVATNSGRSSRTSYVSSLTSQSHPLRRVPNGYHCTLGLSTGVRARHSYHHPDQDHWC
MEASUREMENT DESCRIPTION: N-type calcium channel block, whole cell patch clamp in HEK 293 cells
Format: cell-based
APPLIED CONDITIONS: low frequency stimulation 0.067 Hz (tonic block); holding potential −80 mV to +10 mV; read-out: IC50 @ 0.067 Hz
MEASUREMENT TYPE: pIC50
pIC50 here is simply -log10 of the concentration when that concentration is written in mol/L.

// pIC50 value for Cc1ccc(C(=O)NCC#CCNC(=O)CCCCC(c2ccc(F)cc2)c2ccc(F)cc2)cc1 [Compound P26] : 6.84

// pIC50 value for O=C(CCCCC(c1ccc(F)cc1)c1ccc(F)cc1)NC/C=C/CNC(=O)c1cc(C(F)(F)F)cc(C(F)(F)F)c1 [Compound P15] : 7.72

// pIC50 value for O=C(CCCCC(c1ccc(F)cc1)c1ccc(F)cc1)NC/C=C/CNC(=O)c1ccc(F)cc1 [Compound P20] : 6.73

// pIC50 value for COc1c(C(C)(C)C)cc(C(=O)NC/C=C\CNC(=O)CCCCC(c2ccc(F)cc2)c2ccc(F)cc2)cc1C(C)(C)C [Compound P2] : 6.37

* * *

STUDY SYSTEM: human α1G T-type channels (Homo sapiens)
Construct: expressed in transfected cells; host or cells: HEK cell lines
MEASUREMENT DESCRIPTION: T-type calcium channel block, patch clamp in HEK cell lines
Type: cell-based
APPLIED CONDITIONS: non-inactivating protocol, pre-pulse −100 mV (resting block); read-out: IC50 @ −100 mV
Protocol: Standard patch-clamp techniques were employed to identify blockers of T-type currents. Briefly, previously described HEK cell lines stably expressing human α1G T-type channels were used for all the recordings (passage #: 4-20, 37° C., 5% CO2). To obtain T-type currents, plastic dishes containing semi-confluent cells were positioned on the stage of a ZEISS AXIOVERT S100 microscope after replacing the culture medium with external solution (see below). […]
Can you tell me log10 IC50 for the items I'm about to list?
Form field - Quantity: IC50; Unit: nM; Scale: log10

// log10 IC50 value for O=C(CCCCC(c1ccc(F)cc1)c1ccc(F)cc1)NC/C=C\CNC(=O)c1cc(C(F)(F)F)cc(C(F)(F)F)c1 : 1.43

// log10 IC50 value for Cc1ccc(C(=O)NC/C=C/CNC(=O)CCCCC(c2ccc(F)cc2)c2ccc(F)cc2)cc1 : 1.34

// log10 IC50 value for CC(C)(C)c1ccc(C(=O)NC/C=C\CNC(=O)CCCCC(c2ccc(F)cc2)c2ccc(F)cc2)cc1 : 1.58

// log10 IC50 value for O=C(CC(c1ccccc1)c1ccccc1)NCC#CCN(Cc1ccncc1)Cc1ccncc1 : 1.91

// log10 IC50 value for O=C(CCCCC(c1ccc(F)cc1)c1ccc(F)cc1)NCCCCNC(=O)COc1ccc(Cl)cc1 : 1.80

// log10 IC50 value for CC(C)c1ccc(C(=O)NC/C=C/CNC(=O)CCCCC(c2ccc(F)cc2)c2ccc(F)cc2)cc1 : 0.85

// log10 IC50 value for O=C(CCCCC(c1ccc(F)cc1)c1ccc(F)cc1)NCC#CCNC(=O)c1ccc(F)cc1 : 2.84

// log10 IC50 value for O=C(CCCCC(c1ccc(F)cc1)c1ccc(F)cc1)NC/C=C/CNC(=O)c1cc(C(F)(F)F)cc(C(F)(F)F)c1 : 1.73

// log10 IC50 value for COc1c(C(C)(C)C)cc(C(=O)NC/C=C/CNC(=O)CCCCC(c2ccc(F)cc2)c2ccc(F)cc2)cc1C(C)(C)C : 2.05

// log10 IC50 value for O=C(CC(c1ccccc1)c1ccccc1)NC/C=C/CN(Cc1ccncc1)Cc1ccncc1 : 2.63

// log10 IC50 value for O=C(CCCCC(c1ccc(F)cc1)c1ccc(F)cc1)NC/C=C\CNC(=O)c1ccc(F)cc1 : 1.30

// log10 IC50 value for COc1cc(C(=O)NCC#CCNC(=O)CCCCC(c2ccc(F)cc2)c2ccc(F)cc2)cc(OC)c1OC : 2.55

// log10 IC50 value for O=C(CCCCC(c1ccc(F)cc1)c1ccc(F)cc1)NCC#CCNC(=O)c1ccc(Cl)cc1 : 1.86

// log10 IC50 value for O=C(CCCCC(c1ccc(F)cc1)c1ccc(F)cc1)NC/C=C/CNC(=O)c1ccc(F)cc1 : 2.10

// log10 IC50 value for O=C(CCCCC(c1ccc(F)cc1)c1ccc(F)cc1)NC/C=C/CNC(=O)c1ccc(Cl)cc1 : 2.17

* * *

Can you tell me IC50 for the items I'm about to list?
STUDY SYSTEM: human α1G T-type channels (Homo sapiens, UniProt O43497)
Construct: expressed in transfected cells; host or cells: HEK cell lines
Sequence (O43497 whole entry): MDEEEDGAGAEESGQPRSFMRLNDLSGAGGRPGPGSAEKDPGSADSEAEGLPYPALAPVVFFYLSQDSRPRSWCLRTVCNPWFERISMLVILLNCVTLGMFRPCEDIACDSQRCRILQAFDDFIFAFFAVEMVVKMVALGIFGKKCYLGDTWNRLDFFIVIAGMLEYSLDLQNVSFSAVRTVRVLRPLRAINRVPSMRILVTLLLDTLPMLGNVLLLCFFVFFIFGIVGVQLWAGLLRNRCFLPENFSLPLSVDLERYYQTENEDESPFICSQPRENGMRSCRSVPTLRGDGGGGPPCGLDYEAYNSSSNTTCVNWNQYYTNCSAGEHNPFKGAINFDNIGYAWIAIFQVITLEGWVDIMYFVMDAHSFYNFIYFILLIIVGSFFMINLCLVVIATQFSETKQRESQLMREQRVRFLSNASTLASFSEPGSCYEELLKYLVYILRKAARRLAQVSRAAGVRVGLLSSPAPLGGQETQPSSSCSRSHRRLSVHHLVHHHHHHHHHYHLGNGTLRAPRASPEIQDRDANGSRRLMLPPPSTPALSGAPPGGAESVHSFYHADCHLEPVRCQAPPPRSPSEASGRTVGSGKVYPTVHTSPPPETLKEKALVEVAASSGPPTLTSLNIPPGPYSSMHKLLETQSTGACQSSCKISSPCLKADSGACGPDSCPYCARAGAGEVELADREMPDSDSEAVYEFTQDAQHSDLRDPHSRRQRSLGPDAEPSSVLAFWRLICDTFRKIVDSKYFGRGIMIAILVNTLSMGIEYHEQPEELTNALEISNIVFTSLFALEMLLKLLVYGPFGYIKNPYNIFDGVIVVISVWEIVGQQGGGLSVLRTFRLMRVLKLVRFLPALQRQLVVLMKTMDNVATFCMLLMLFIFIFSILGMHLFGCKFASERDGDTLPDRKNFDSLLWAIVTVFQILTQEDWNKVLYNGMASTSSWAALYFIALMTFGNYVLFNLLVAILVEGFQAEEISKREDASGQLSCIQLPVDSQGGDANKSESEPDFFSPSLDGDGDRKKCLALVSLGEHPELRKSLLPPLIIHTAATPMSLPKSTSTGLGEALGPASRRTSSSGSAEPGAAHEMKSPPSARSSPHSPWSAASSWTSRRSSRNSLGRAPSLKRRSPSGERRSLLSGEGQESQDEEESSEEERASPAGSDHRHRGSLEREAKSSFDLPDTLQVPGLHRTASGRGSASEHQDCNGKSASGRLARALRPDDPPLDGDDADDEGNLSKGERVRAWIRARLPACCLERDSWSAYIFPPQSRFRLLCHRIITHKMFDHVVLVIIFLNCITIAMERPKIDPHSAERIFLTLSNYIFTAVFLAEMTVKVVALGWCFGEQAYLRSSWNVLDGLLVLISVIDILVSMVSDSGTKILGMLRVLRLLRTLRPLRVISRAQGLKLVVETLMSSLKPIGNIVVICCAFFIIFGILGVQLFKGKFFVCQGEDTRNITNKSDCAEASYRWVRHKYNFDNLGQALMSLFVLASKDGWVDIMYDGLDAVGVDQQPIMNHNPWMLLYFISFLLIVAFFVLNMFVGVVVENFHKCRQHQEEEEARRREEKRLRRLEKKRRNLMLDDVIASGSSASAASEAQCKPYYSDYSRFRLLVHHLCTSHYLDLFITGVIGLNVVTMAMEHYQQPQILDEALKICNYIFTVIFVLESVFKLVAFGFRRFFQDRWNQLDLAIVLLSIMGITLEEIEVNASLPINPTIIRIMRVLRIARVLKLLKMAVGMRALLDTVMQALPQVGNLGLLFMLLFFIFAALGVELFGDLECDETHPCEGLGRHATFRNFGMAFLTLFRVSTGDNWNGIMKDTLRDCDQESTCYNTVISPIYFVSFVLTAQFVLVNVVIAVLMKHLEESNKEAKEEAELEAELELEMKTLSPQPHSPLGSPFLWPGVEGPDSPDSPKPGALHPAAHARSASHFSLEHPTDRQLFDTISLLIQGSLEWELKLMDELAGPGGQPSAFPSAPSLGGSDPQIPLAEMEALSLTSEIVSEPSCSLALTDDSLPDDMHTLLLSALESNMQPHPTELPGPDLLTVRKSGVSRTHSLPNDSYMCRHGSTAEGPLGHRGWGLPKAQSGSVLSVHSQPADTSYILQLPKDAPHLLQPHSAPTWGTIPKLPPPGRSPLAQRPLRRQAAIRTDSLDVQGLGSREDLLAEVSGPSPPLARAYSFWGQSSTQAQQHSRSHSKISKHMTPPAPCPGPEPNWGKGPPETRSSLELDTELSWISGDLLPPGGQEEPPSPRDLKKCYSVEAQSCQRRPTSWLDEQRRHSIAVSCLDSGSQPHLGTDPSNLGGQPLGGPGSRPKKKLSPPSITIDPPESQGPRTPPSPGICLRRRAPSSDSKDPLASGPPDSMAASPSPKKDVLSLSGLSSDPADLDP
MEASUREMENT DESCRIPTION: T-type calcium channel block, patch clamp in HEK cell lines
Format: cell-based
APPLIED CONDITIONS: non-inactivating protocol, pre-pulse −100 mV (resting block); read-out: IC50 @ −100 mV
Please state the figure in nM; there is no need to write the unit.

// IC50 value for CC(C)c1ccc(C(=O)NCCCCNC(=O)CCCCC(c2ccc(F)cc2)c2ccc(F)cc2)cc1 : 31

// IC50 value for CC(C)c1ccc(C(=O)NCC#CCNC(=O)CCCCC(c2ccc(F)cc2)c2ccc(F)cc2)cc1 : 1000

// IC50 value for O=C(CC(c1ccccc1)c1ccccc1)NCC#CCN(Cc1cccnc1)Cc1cccnc1 : 94

// IC50 value for O=C(CCCCC(c1ccc(F)cc1)c1ccc(F)cc1)NC/C=C\CNC(=O)COc1ccc(Cl)cc1 : 128

// IC50 value for O=C(CCCCC(c1ccc(F)cc1)c1ccc(F)cc1)NC/C=C/CNC(=O)COc1ccc(Cl)cc1 : 26

// IC50 value for CC(C)(C)c1ccc(C(=O)NCCCCNC(=O)CCCCC(c2ccc(F)cc2)c2ccc(F)cc2)cc1 : 177

// IC50 value for COc1cc(C(=O)NC/C=C/CNC(=O)CCCCC(c2ccc(F)cc2)c2ccc(F)cc2)cc(OC)c1OC : 155

// IC50 value for CC(C)c1ccc(C(=O)NC/C=C\CNC(=O)CCCCC(c2ccc(F)cc2)c2ccc(F)cc2)cc1 : 196

// IC50 value for O=C(CC(c1ccccc1)c1ccccc1)NCC#CCN(Cc1ccccn1)Cc1ccccn1 : 1800

// IC50 value for Cc1ccc(C(=O)NCC#CCNC(=O)CCCCC(c2ccc(F)cc2)c2ccc(F)cc2)cc1 : 336
